FYI, the data here is from patent US12594267B2.

I'd appreciate it if you could supply EC50 values for the items below.
test system: WT LAI; test: microbe, parasite or virus in culture; assay type: cell-based, HIV-1; details: Human immunodeficiency virus 1, MT2, read-out: WT LAI EC50
Entry rule: numbers only, all in nM.

Enquiry: What EC50 value was documented for this compound, COC(=O)N[C@H](C(=O)N[C@@H](Cc1ccccc1)[C@@H](O)CN(Cc1ccc(-c2ccccn2)cc1)NC(=O)[C@@H](NC(=O)OC)C(C)(C)C)C(C)(C)C [ATV, atazanavir] ?
Return: 4.78

Enquiry: What EC50 value was documented for this compound, Nc1nc(=O)n([C@@H]2CS[C@H](CO)O2)cc1F [FTC, emtricitabine] ?
Return: 2.41

Enquiry: What EC50 value was documented for this compound, CC(C)(C#Cc1ccc(-c2ccc(Cl)c3c(NS(C)(=O)=O)nn(CC(F)(F)F)c23)c([C@H](Cc2cc(F)cc(F)c2)NC(=O)Cn2nc(C(F)(F)F)c3c2C(F)(F)[C@@H]2C[C@H]32)n1)S(C)(=O)=O [Formula (Ia)] ?
Return: 0.14

Enquiry: What EC50 value was documented for this compound, COc1cc2c(cc1Cc1cccc(Cl)c1F)c(=O)c(C(=O)O)cn2[C@H](CO)C(C)C [EVG, elvitegravir] ?
Return: 2.64

* * *

experiment: PK after subcutaneous administration of solutions in dogs; format: in vivo, Beagle dog; conditions: male, beagle, dog, plasma, sc, 12 mg/kg, dog #3; 96.0 h; SC 12 mg/kg, 400 mg/mL in 15% water/85% PEG 300
property.measured: concentration at 96 h
Give me the value, and tack the unit on after it.

Enquiry: What concentration at 96 h value was documented for this compound, CC(C)(C#Cc1ccc(-c2ccc(Cl)c3c(NS(C)(=O)=O)nn(CC(F)(F)F)c23)c([C@H](Cc2cc(F)cc(F)c2)NC(=O)Cn2nc(C(F)(F)F)c3c2C(F)(F)[C@@H]2C[C@H]32)n1)S(C)(=O)=O [Formula (Ia)] ?
Return: 10.4 nM

* * *

experiment: PK after subcutaneous administration of solutions in dogs; format: in vivo, Beagle dog; settings: male, beagle, dog, plasma, sc, 12 mg/kg, dog #3; 840 h; SC 12 mg/kg, 400 mg/mL in 15% water/85% PEG 300
property.measured: concentration at 840 h (nM)
Entry rule: numbers only, all in nM.

Enquiry: What concentration at 840 h value was documented for this compound, CC(C)(C#Cc1ccc(-c2ccc(Cl)c3c(NS(C)(=O)=O)nn(CC(F)(F)F)c23)c([C@H](Cc2cc(F)cc(F)c2)NC(=O)Cn2nc(C(F)(F)F)c3c2C(F)(F)[C@@H]2C[C@H]32)n1)S(C)(=O)=O ?
Return: 107

* * *

assay: PK after subcutaneous administration of solutions in dogs; type: in vivo, Beagle dog; conditions: male, beagle, dog, plasma, sc, 12 mg/kg, dog #3; 1680 h; SC 12 mg/kg, 400 mg/mL in 15% water/85% PEG 300
property.measured: concentration at 1680 h (nM)
Entry rule: numbers only, all in nM.

Enquiry: What concentration at 1680 h value was documented for this compound, CC(C)(C#Cc1ccc(-c2ccc(Cl)c3c(NS(C)(=O)=O)nn(CC(F)(F)F)c23)c([C@H](Cc2cc(F)cc(F)c2)NC(=O)Cn2nc(C(F)(F)F)c3c2C(F)(F)[C@@H]2C[C@H]32)n1)S(C)(=O)=O [Formula (Ia)] ?
Return: 28.5

* * *

assay: PK after subcutaneous administration of solutions in dogs; format: in vivo, Beagle dog; conditions: male, beagle, dog, plasma, sc, 12 mg/kg, dog mean, n=3; 168 h; SC 12 mg/kg, 400 mg/mL in 15% water/85% PEG 300
property.measured: concentration at 168 h (nM)
Entry rule: numbers only, all in nM.

Enquiry: What concentration at 168 h value was documented for this compound, CC(C)(C#Cc1ccc(-c2ccc(Cl)c3c(NS(C)(=O)=O)nn(CC(F)(F)F)c23)c([C@H](Cc2cc(F)cc(F)c2)NC(=O)Cn2nc(C(F)(F)F)c3c2C(F)(F)[C@@H]2C[C@H]32)n1)S(C)(=O)=O [Formula (Ia)] ?
Return: 48.6

* * *

experiment: PK after oral administration in liquid-filled capsules in dogs; type: in vivo, beagle dogs; conditions: beagle, dog, plasma, po, 7.5 mg, beagle dogs; oral liquid-filled capsules, 100% glycerol monocaprylocaprate, 7.5 mg fixed dose; 50 mg/mL (Table S); mean ± SD, n=6; read-out: AUC0-14d
property.measured: AUC(0-t)

Enquiry: What AUC(0-t) value was documented for this compound, CC(C)(C#Cc1ccc(-c2ccc(Cl)c3c(NS(C)(=O)=O)nn(CC(F)(F)F)c23)c([C@H](Cc2cc(F)cc(F)c2)NC(=O)Cn2nc(C(F)(F)F)c3c2C(F)(F)[C@@H]2C[C@H]32)n1)S(C)(=O)=O ?
Return: 108 µM·h

* * *

experiment: PK after subcutaneous administration of solutions in dogs; format: in vivo, Beagle dog; conditions: Beagle, dog, plasma, sc, 6 mg/kg, dog; SC 6 mg/kg; 150 mg/mL solution (w/w %: 26.6 water, 56.97 PEG 300, 13.39 Formula (Ia), 0.57 NaOH, 2.49 poloxamer 188); mean ± SD, n=3
property.measured: Tmax (h)
Entry rule: numbers only, all in h.

Enquiry: What Tmax value was documented for this molecule, CC(C)(C#Cc1ccc(-c2ccc(Cl)c3c(NS(C)(=O)=O)nn(CC(F)(F)F)c23)c([C@H](Cc2cc(F)cc(F)c2)NC(=O)Cn2nc(C(F)(F)F)c3c2C(F)(F)[C@@H]2C[C@H]32)n1)S(C)(=O)=O [Formula (Ia)] ?
Return: 240

* * *

experiment: PK after subcutaneous administration of solutions in rats; assay type: in vivo, Wistar Han rat; details: male, Wistar Han, rat, plasma, sc, 50 mg/kg, rat mean, n=3; 1 h; SC 50 mg/kg, 300 mg/mL in 15% water/85% PEG 300
property.measured: concentration at 1 h
Give me the value, and tack the unit on after it.

Enquiry: What concentration at 1 h value was documented for this compound, CC(C)(C#Cc1ccc(-c2ccc(Cl)c3c(NS(C)(=O)=O)nn(CC(F)(F)F)c23)c([C@H](Cc2cc(F)cc(F)c2)NC(=O)Cn2nc(C(F)(F)F)c3c2C(F)(F)[C@@H]2C[C@H]32)n1)S(C)(=O)=O ?
Return: 8.6 nM

* * *

test: PK after subcutaneous administration of solutions in rats; format: in vivo, Wistar Han rat; details: male, Wistar Han, rat, plasma, sc, 50 mg/kg, rat; single SC 50 mg/kg; 300 mg/mL free acid in 85:15 w/w PEG 300:water; mean ± SD, n=3; read-out: AUC0-168h
property.measured: AUC(0-t) (µM·h)
Entry rule: numbers only, all in µM·h.

Enquiry: What AUC(0-t) value was documented for this molecule, CC(C)(C#Cc1ccc(-c2ccc(Cl)c3c(NS(C)(=O)=O)nn(CC(F)(F)F)c23)c([C@H](Cc2cc(F)cc(F)c2)NC(=O)Cn2nc(C(F)(F)F)c3c2C(F)(F)[C@@H]2C[C@H]32)n1)S(C)(=O)=O ?
Return: 13.3

* * *

test: PK after subcutaneous administration of solutions in dogs; type: in vivo, Beagle dog; conditions: male, beagle, dog, plasma, sc, 12 mg/kg, dog #2; 72.0 h; SC 12 mg/kg, 400 mg/mL in 15% water/85% PEG 300
property.measured: concentration at 72 h (nM)
Entry rule: numbers only, all in nM.

Enquiry: What concentration at 72 h value was documented for this molecule, CC(C)(C#Cc1ccc(-c2ccc(Cl)c3c(NS(C)(=O)=O)nn(CC(F)(F)F)c23)c([C@H](Cc2cc(F)cc(F)c2)NC(=O)Cn2nc(C(F)(F)F)c3c2C(F)(F)[C@@H]2C[C@H]32)n1)S(C)(=O)=O ?
Return: 37.8

* * *

assay: PK after subcutaneous administration of solutions in rats; format: in vivo, Wistar Han rat; conditions: male, Wistar Han, rat, plasma, sc, 50 mg/kg, rat mean, n=3; 8 h; SC 50 mg/kg, 300 mg/mL in 15% water/85% PEG 300
property.measured: concentration at 8 h (nM)
Entry rule: numbers only, all in nM.

Enquiry: What concentration at 8 h value was documented for this compound, CC(C)(C#Cc1ccc(-c2ccc(Cl)c3c(NS(C)(=O)=O)nn(CC(F)(F)F)c23)c([C@H](Cc2cc(F)cc(F)c2)NC(=O)Cn2nc(C(F)(F)F)c3c2C(F)(F)[C@@H]2C[C@H]32)n1)S(C)(=O)=O [Formula (Ia)] ?
Return: 32.2

* * *

test: PK after subcutaneous administration of solutions in dogs; type: in vivo, Beagle dog; conditions: male, beagle, dog, plasma, sc, 12 mg/kg, dog #2; 168 h; SC 12 mg/kg, 400 mg/mL in 15% water/85% PEG 300
property.measured: concentration at 168 h (nM)
Entry rule: numbers only, all in nM.

Enquiry: What concentration at 168 h value was documented for this compound, CC(C)(C#Cc1ccc(-c2ccc(Cl)c3c(NS(C)(=O)=O)nn(CC(F)(F)F)c23)c([C@H](Cc2cc(F)cc(F)c2)NC(=O)Cn2nc(C(F)(F)F)c3c2C(F)(F)[C@@H]2C[C@H]32)n1)S(C)(=O)=O ?
Return: 43.1
